Molecular target: HDAC6 enzyme (Homo sapiens, UniProt Q9UBN7)
Construct: transducing full length HDAC1 and HDAC6 genes into Sf-9 insect cells; GST; purchased SignalChem; host or cells: Sf-9 insect cells
Sequence (Q9UBN7 whole entry): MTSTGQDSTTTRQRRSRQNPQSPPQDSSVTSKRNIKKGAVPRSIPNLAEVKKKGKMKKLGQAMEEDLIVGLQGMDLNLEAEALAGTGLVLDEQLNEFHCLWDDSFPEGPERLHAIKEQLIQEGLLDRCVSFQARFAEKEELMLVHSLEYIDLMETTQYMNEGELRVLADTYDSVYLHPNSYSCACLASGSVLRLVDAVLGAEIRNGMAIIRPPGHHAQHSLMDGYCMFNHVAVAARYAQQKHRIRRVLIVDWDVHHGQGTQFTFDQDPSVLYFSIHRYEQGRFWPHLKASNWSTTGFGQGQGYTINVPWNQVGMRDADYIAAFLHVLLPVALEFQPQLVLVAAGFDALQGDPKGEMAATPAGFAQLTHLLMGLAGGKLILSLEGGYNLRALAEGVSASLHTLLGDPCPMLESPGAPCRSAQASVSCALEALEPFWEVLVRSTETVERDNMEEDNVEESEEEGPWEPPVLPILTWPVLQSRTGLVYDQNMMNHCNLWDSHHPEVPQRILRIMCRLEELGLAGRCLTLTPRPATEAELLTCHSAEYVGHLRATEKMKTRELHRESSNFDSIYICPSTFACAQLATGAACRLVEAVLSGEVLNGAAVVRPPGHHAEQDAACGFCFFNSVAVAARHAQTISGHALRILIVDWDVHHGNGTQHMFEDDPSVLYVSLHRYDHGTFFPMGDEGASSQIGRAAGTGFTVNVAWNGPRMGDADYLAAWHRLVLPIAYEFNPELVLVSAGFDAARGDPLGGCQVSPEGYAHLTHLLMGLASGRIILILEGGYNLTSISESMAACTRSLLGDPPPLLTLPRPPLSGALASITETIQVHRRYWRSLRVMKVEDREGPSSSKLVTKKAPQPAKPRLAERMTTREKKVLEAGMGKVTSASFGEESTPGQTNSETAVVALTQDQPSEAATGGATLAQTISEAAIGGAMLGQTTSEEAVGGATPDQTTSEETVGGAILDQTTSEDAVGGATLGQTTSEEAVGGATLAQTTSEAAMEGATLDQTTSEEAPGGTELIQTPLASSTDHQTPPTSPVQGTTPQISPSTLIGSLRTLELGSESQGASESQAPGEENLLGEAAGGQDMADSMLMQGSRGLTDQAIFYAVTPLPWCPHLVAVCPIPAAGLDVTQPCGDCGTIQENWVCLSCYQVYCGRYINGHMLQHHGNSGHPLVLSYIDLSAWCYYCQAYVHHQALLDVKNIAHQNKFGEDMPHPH
Experiment: HDAC1/6 Enzyme Inhibitory Assay (HDAC-Glo I/II Assay kit), HDAC6
Format: biochemical
Details: 1 μM test compound; wells without enzyme = 100% inhibition; read-out: HDAC6 inhibitory rate (%) (1 μM)
compounds and their reported inhibition at 1 µM
Reply numerically in %, unit not repeated.

compound=Cn1cnc(C(=O)N[C@@H]2CCCC[C@H]2N2Cc3ccc(-c4noc(C(F)(F)F)n4)cc3C2=O)c1 quantity="inhibition at 1 µM" resultunit=% valuereported=98
compound=O=C(N[C@H]1COCC[C@@H]1N1Cc2ccc(-c3noc(C(F)(F)F)n3)cc2C1=O)[C@H]1CC1(F)F quantity="inhibition at 1 µM" resultunit=% valuereported=90
compound="N[C@H]1CCCC[C@H]1N1Cc2ccc(-c3noc(C(F)(F)F)n3)cc2C1=O (relative stereo)" quantity="inhibition at 1 µM" resultunit=% valuereported=68
compound=O=C1c2cc(-c3noc(C(F)(F)F)n3)ccc2CN1[C@@H]1COCC[C@H]1O quantity="inhibition at 1 µM" resultunit=% valuereported=90
compound="CC(C)(C)OC(=O)N[C@@H]1CCCC[C@@H]1N1Cc2ccc(-c3noc(C(F)(F)F)n3)cc2C1=O (relative stereo)" quantity="inhibition at 1 µM" resultunit=% valuereported=95
compound=O=C1CC[C@H](C(=O)N[C@@H]2CCCC[C@H]2N2Cc3ccc(-c4noc(C(F)(F)F)n4)cc3C2=O)N1 quantity="inhibition at 1 µM" resultunit=% valuereported=96
compound=O=C1c2ccc(-c3noc(C(F)(F)F)n3)cc2CN1c1ccccc1 quantity="inhibition at 1 µM" resultunit=% valuereported=8
compound="O=C(Cc1ccc(F)cc1)N1CCCC(N2Cc3ncc(-c4noc(C(F)(F)F)n4)cc3C2=O)C1 (stereo not drawn)" quantity="inhibition at 1 µM" resultunit=% valuereported=93
compound="O=C1c2ccc(-c3noc(C(F)(F)F)n3)cc2CN1[C@@H]1CNCC[C@H]1c1ccccc1 (relative stereo)" quantity="inhibition at 1 µM" resultunit=% valuereported=90
compound=O=C1c2cc(-c3noc(C(F)(F)F)n3)ccc2CN1[C@H]1CCNC[C@H]1c1ccccc1 quantity="inhibition at 1 µM" resultunit=% valuereported=98

Next item in the queue.
In: What measured inhibition at 1 µM goes with CC(C)(C)OC(=O)N[C@H]1CCC[C@@H]1N1Cc2ccc(-c3noc(C(F)(F)F)n3)cc2C1=O ?
Out: 42
